These data points were gathered from patent US20250215097A1.

# reported pEC50; entries follow
Target: T1, cynomolgus monkey CCR8 (cynomolgus monkey, UniProt O97665 1-356 (rhesus entry))
T1 construct: Full-length, stably expressed on CHO cells; also called cynoCCR8; CHO-cynoCCR8
T1 sequence (O97665 other isoform, or with tags, fused parts or gaps): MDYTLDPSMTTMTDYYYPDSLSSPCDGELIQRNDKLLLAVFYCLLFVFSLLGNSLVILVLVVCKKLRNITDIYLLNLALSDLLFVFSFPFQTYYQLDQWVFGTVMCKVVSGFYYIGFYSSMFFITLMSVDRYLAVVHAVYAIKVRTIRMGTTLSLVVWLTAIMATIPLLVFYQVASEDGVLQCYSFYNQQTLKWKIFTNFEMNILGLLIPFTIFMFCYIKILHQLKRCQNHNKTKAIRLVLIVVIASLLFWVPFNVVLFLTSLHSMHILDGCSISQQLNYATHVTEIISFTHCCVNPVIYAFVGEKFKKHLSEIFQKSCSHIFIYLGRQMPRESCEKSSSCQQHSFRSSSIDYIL
Assay: flow cytometry, chimeric IgG on CHO-cynoCCR8 cells
Method: 5×10⁴ CHO-hCCR8 or CHO-cynoCCR8 cells were added per well in a 96-well U-shaped plate and centrifuged to discard the supernatant, 100 μL of a gradiently diluted anti-CCR8 chimeric antibody or anti-KLH isotype control antibody was added per well and the mixture was incubated on ice for 60 minutes. […] The fluorescence value of a Pi-negative cell population was analyzed. […]
Please report pEC50 as the negative decimal logarithm of the molar concentration, giving only the number.

Worked cases, pEC50 given:
1. 144D2 anti-CCR8 chimeric antibody (antibody, V domains shown) VH: EVQLVESGGGLVQPKGSLKLSCAASGFTFNAFAMNWVRQAPGKGLEWVARIRSKSNNYATYYADSVIDRFTISRDDSQSMLYLQMNNLKTEDTAMYYCVRGKEAGAYYAMDYWGQGTSVTVSS VL: DIVMTQAAPSVPVTPGESVSISCRSSKSLLHSNGNTYLYWFLQRPGQSPQLLIYRMSNLASGVPDRFSGSGSGTAFTLRISRVEAEDVGVYYCMQHLEYPLTFGAGTKLEIK	8.56
2. 102H5 anti-CCR8 chimeric antibody (antibody, V domains shown) VH: QVQLVESNGRLVQPKGSLKLSCAASGFTFNAYAMNWVRQAPGKGLEWVARIRSKSNNYATYYADSVKDRFTISRDDSQNMLYLQMNNLKTEDTAMYFCVRQKFGARGYYALDFWGQGATVTVSS VL: DIVLTQSPASLAVSLGQRATISCRASESVEYYGTSLMQWYQQKPGQPPKLLIYAASNVESGVPARFSGSGSGTDFSLNIHPVEEDDIAMYFCQQSRKVPYTFGGGTKLEIK	8.93

Req: # lookup: pEC50 of 110G2 anti-CCR8 chimeric antibody (antibody, V domains shown) VH: QVQLVESNGRLVQPKGSLKLSCAASGFTFNAYAMNWVRQAPGKGLEWVARIRSKSNNYATYYADSVKDRFTISRDDSQSMLYLQMNNLKTEDTAMYFCVRQKFGARGYYALDFWGQGASVTVSS VL: EILLTQSPAIMSASPGEKVTMTCRASSSVSSSYLHWYQQKSGASPKLWIYSTSNLASGVPARFSGSGSGTSYSLTISSVEAEDAATYYCQQYSGYPYTFGGGTKLEIK
Resp: 8.90
